Here the recorded residual activity is given for each entry.
biological target: CDK3/cyclin E (Homo sapiens) (UniProt P24864+O96020+Q00526); conditions: at 10 µM
Only the number, expressed in %, is required.

// worked examples, residual activity included
residual activity reading for Oc1ccc(-c2nc(-c3ccc(F)cc3)c(-c3ccncc3)[nH]2)cc1 : 93

residual activity reading for COc1cc2ncnc(Nc3ccc(O)c(Br)c3)c2cc1OC : 71

***
residual activity reading for Cn1nc2c3c(cccc31)C(=O)c1ccccc1-2 : 72

###

biological target: Ephrin type-B receptor 2 (Homo sapiens) (UniProt P29323); conditions: at 10 µM
Sequence (P29323 whole entry): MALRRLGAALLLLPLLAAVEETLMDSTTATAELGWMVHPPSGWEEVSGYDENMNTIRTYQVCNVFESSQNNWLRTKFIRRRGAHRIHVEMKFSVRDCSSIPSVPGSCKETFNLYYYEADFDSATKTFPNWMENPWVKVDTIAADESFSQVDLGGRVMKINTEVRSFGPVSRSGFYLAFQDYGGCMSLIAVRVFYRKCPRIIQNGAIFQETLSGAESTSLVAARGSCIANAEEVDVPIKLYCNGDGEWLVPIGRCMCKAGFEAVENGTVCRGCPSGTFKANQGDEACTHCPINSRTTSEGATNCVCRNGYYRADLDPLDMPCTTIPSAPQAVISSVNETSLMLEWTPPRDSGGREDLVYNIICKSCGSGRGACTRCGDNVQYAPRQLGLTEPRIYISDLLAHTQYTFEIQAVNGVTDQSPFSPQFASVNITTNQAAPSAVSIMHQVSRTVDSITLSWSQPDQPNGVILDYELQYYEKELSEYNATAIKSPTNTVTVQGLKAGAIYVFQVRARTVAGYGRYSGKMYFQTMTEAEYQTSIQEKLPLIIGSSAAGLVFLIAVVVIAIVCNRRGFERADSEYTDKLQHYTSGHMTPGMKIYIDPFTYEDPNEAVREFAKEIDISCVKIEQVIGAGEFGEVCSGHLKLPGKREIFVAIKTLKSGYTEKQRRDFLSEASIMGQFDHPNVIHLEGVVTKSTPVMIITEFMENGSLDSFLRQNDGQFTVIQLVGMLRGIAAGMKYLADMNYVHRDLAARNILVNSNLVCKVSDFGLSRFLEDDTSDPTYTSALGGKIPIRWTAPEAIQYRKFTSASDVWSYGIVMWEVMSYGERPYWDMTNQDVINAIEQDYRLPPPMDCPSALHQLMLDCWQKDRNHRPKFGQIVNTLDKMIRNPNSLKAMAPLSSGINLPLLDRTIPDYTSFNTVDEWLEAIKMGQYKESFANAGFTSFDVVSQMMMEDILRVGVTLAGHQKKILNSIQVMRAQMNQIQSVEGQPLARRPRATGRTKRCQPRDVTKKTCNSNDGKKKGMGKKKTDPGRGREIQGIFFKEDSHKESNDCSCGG
Here the recorded residual activity is given for each entry.
Only the number, expressed in %, is required.

residual activity reading for CC(=O)O/N=C1\C(=C2\C(=O)Nc3cc(Br)ccc32)Nc2ccccc21 : 60

residual activity reading for O=C1NC(=O)c2c1c1c3ccccc3[nH]c1c1[nH]c3cc(Br)ccc3c21 : 101

residual activity reading for Cc1cc(Nc2nc(-c3ccccc3)nc3ccccc23)n[nH]1 : 48

residual activity reading for CCOc1cc2ncnc(Nc3cccc(Br)c3)c2cc1OCC : 0

residual activity reading for O=Nc1c(-c2c(O)[nH]c3ccccc23)[nH]c2ccccc12 : 13

***
residual activity reading for Cn1nc2c3c(cccc31)C(=O)c1ccccc1-2 : 109

residual activity reading for CN(C)CCCn1cc(C2=C(c3c[nH]c4ccccc34)C(=O)NC2=O)c2ccccc21 : 113

###

target: Serine/threonine-protein kinase PLK3 (Homo sapiens); settings: at 1 µM
Description: Millipore: Percentage of residual kinase activity of PLK3 at 1uM relative to control. Control inhibitor: Wortmannin at 100.0uM. Buffer: 8 mM MOPS pH 7.0, 0.2 mM EDTA
Here the recorded residual activity is given for each entry.
Only the number, expressed in %, is required.

// worked examples, residual activity included
residual activity reading for CC(=O)c1ccc(N2CCOCC2)cc1O : 90

residual activity reading for c1ccc(-c2n[nH]cc2-c2ccnc3ccccc23)nc1 : 99

residual activity reading for Oc1ccc(Nc2nc(-c3ccc(Cl)cc3)cs2)cc1 : 100

residual activity reading for Cc1cccc(-c2[nH]c(C(C)(C)C)nc2-c2ccc3c(c2)OCO3)n1 : 98

residual activity reading for O=C1Nc2cc(Br)ccc2/C1=C1/Nc2ccccc2/C1=N\O : 100

residual activity reading for O=C(O)c1ccc2c3c1cccc3c(=O)n1c3ccccc3nc21 : 106

residual activity reading for Cn1cc(/C=C2\C(=O)Nc3ccc(S(N)(=O)=O)cc32)c2ccccc21 : 100

residual activity reading for Ic1cccc(CSc2nnc(-c3ccncc3)o2)c1 : 87

***
residual activity reading for COc1cc2ncnc(Nc3ccc(O)c(Br)c3)c2cc1OC : 92

residual activity reading for Nc1cccc(-c2cc3c(Oc4cccc(O)c4)ncnc3[nH]2)c1 : 99

residual activity reading for O=C1NC(=O)/C(=C/c2ccc3c(c2)OC(F)(F)O3)S1 : 94

residual activity reading for c1ccc(-c2n[nH]c3c2oc2ccccc23)cc1 : 100

residual activity reading for N#CCCc1ccc2c(c1)-c1[nH]c3ccc([N+](=O)[O-])cc3c1CC(=O)N2 : 100

###

biological target: Tyrosine-protein kinase Lyn (Homo sapiens); conditions: at 10 µM
reported.metric: residual activity (%)
Only the number, expressed in %, is required.

// worked examples, residual activity included
residual activity reading for COc1cc2ncc(-c3ccccc3)nc2cc1OC : 58

residual activity reading for CCN(CC)C(=O)c1ccc(Nc2nc(OCC3CCCCC3)c3nc[nH]c3n2)cc1 : 1

residual activity reading for Oc1ccc(-c2nc(-c3ccc(F)cc3)c(-c3ccncc3)[nH]2)cc1 : 11

Proceed to the following item.
residual activity reading for Cc1cc2ncc(-c3ccccc3)nc2cc1C : 75
